# MEASURED TARGET: HLA-B*40:01
# EXPERIMENTAL DETAILS: IEDB peptide-MHC binding, purified MHC/direct/fluorescence; filed as Kd, often an IC50 or EC50 that approximates it; bounds were set here for any values at or beyond the usual limits of such assays
# CONDITION: source organism: Vibrio cholerae
pKd: −log10 of the molar value.
OBSERVATION TYPE: pKd

Enquiry: Which pKd is reported for this sequence? RPRIRLSAP
Return: ≤ 4.70

* * *

# MEASURED TARGET: HLA-A*69:01
# EXPERIMENTAL DETAILS: IEDB peptide-MHC binding, purified MHC/direct/fluorescence; filed as Kd, often an IC50 or EC50 that approximates it; bounds were set here for any values at or beyond the usual limits of such assays
# CONDITION: source organism: Pseudomonas putida
OBSERVATION TYPE: Kd

Enquiry: Form entry - test system: HLA-A*69:01; read-out: Kd; sequence: RVWRGEQGK
Return: ≥ 20 µM
